src = patent US5389687A

molecular target: 5HT1a receptors (Rattus norvegicus, UniProt P19327); construct: synaptosomal membranes isolated from cerebral cortex; from tissue; host or cells: rat cerebral cortex, crude synaptosomal membranes (Male Sprague-Dawley rats from Harlan Industries); test: Binding at 5HT1a receptors in vitro (inhibition of 3H-8-OH-DPAT binding to synaptosomal membranes from cerebral cortex); parameters: species or system Male Sprague-Dawley rats; conditions: 0.4 nM 3H-8-OH-DPAT, 37° C., 10 min, pH 7.4, several values in a cell are separate determinations, read-out: IC50 5HT1a
Sequence (P19327 whole entry): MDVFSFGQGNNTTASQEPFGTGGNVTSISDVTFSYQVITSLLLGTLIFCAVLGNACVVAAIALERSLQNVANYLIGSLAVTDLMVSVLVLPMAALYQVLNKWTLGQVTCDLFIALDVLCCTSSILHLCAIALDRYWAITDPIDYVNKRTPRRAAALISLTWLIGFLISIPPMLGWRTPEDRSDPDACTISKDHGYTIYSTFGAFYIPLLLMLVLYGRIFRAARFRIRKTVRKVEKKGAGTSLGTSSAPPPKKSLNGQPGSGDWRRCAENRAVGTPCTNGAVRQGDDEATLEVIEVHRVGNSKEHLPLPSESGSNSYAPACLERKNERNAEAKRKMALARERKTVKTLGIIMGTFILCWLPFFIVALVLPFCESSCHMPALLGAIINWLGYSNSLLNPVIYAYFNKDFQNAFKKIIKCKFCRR
Note to self: use Y only for IC50 readings below 400 nM; a reading exactly at 400 nM still gets N.

molecule="CCCN(CCC)C1CCc2cccc(F)c2C1 (centres unmarked)" label_class=Y
molecule="CCN(C)C1CCc2cccc(Cl)c2C1 (centres unmarked)" label_class=Y
molecule="CCCNC1CCc2cccc(Cl)c2C1 (centres unmarked)" label_class=Y
molecule="CCCN(C)C1CCc2cccc(Cl)c2C1 (centres unmarked)" label_class=N
